system: Toledo; test: Cytotoxicity DLBCL; conditions: read-out: cytotoxicity IC50, DLBCL GCB
pIC50: −log10 of the molar value.

compound | targetOfAssay | pIC50
CC(C)NCCCn1c(Sc2cc3c(cc2I)OCO3)nc2c(N)ncnc21 [PUH71] | Toledo | 5.58

====

experiment: Caco-2 permeability; assay type: in vitro ADME, human; conditions: human, Caco-2, 10 μM

compound | Papp B→A at 10 μM, ×10⁻⁶ cm/s
CN(C)CCNC(=O)c1cccc(NC(=O)Nc2ccc(N(CCCl)CCCl)cc2)c1 [BO-1055, Ureidomustine] | 7.05

====

tested on: JEKO-1; experiment: Cytotoxicity mantle cell lymphoma; settings: human, JEKO-1 mantle cell lymphoma cells, 72 h
pIC50: −log10 of the molar value.

compound | pIC50
Cc1[nH]c2ccccc2c1CCNCc1ccc(/C=C/C(=O)NO)cc1 [Panobinostat] | 6.68

====

The compounds listed here are annotated with their IC50.
test system: spontaneous murine B-cell lymphoma; settings: mouse

compound | targetOfAssay | IC50 / nM
CC(C)C[C@H](NC(=O)[C@H](Cc1ccccc1)NC(=O)c1cnccn1)B(O)O [velcade, Bortezomib] | spontaneous murine B-cell lymphoma | 6
CN(C)CCNC(=O)c1cccc(NC(=O)Nc2ccc(N(CCCl)CCCl)cc2)c1 [BO-1055, Ureidomustine] | spontaneous murine B-cell lymphoma | 460

====

tested on: Granta-519; test: Cytotoxicity mantle cell lymphoma; conditions: human, Granta-519 mantle cell lymphoma cells, 72 h
pIC50: −log10 of the molar value.

compound | targetOfAssay | pIC50
Cc1[nH]c2ccccc2c1CCNCc1ccc(/C=C/C(=O)NO)cc1 [Panobinostat] | Granta-519 | 7.39

====

system: H562; assay: Cytotoxicity SCLC 72 hr alamar blue; format: cell-based, human
pIC50: −log10 of the molar value.
parameter: pIC50

molecule | measuredResult
N.N.[Cl][Pt][Cl] [Cisplatin] | 5.86

====

system: HCC364; assay type: cell-based, human

compound | targetOfAssay | IC50
N.N.[Cl][Pt][Cl] [Cisplatin] | HCC364 | ≥ 75 µM
N.N.O=C([O-])C1(C(=O)[O-])CCC1.[Pt+2] [Carboplatin] | HCC364 | 172 µM

====

experiment: Pharmacokinetics, IV bolus 10 mg/kg; type: in vivo, Sprague-Dawley rats; details: male, Sprague-Dawley, plasma; IV 10 mg/kg, rat, n=5
parameter: Cmax (ng/mL)

compound | readoutUnits | measuredResult
CN(C)CCNC(=O)c1cccc(NC(=O)Nc2ccc(N(CCCl)CCCl)cc2)c1 [BO-1055, Ureidomustine] | ng/mL | 13400

====

tested on: Toledo; conditions: human
pIC50: −log10 of the molar value.
The following compounds are shown together with reported pIC50 values.

structure | relationSymbol | pIC50
COc1cccc2c1C(=O)c1c(O)c3c(c(O)c1C2=O)C[C@@](O)(C(=O)CO)C[C@@H]3O[C@H]1C[C@H](N)[C@H](O)[C@H](C)O1 | < | 5.00
CC(C)C[C@H](NC(=O)[C@H](Cc1ccccc1)NC(=O)c1cnccn1)B(O)O | = | 6.97
CN(C)CCNC(=O)c1cccc(NC(=O)Nc2ccc(N(CCCl)CCCl)cc2)c1 | = | 5.05

====

test system: H596; type: cell-based, human
pIC50: −log10 of the molar value.
pIC50 for assorted molecules
parameter: pIC50

molecule | relationSymbol | measuredResult
N.N.[Cl][Pt][Cl] [Cisplatin] | ≤ | 5.00
N.N.O=C([O-])C1(C(=O)[O-])CCC1.[Pt+2] | = | 4.47

====

system: H678; assay: Cytotoxicity SCLC 72 hr alamar blue; type: cell-based, human
pIC50: −log10 of the molar value.

compound | pIC50
N.N.[Cl][Pt][Cl] [Cisplatin] | 5.42

====

system: Ly3 (OCI-LY3); conditions: human
Readings of IC50 for the listed molecules

molecule | targetOfAssay | IC50
CC(C)C[C@H](NC(=O)[C@H](Cc1ccccc1)NC(=O)c1cnccn1)B(O)O [velcade, Bortezomib] | Ly3 (OCI-LY3) | 21 nM
CN(C)CCNC(=O)c1cccc(NC(=O)Nc2ccc(N(CCCl)CCCl)cc2)c1 [BO-1055, Ureidomustine] | Ly3 (OCI-LY3) | 3500 nM

====

system: H187; experiment: Cytotoxicity SCLC 72 hr alamar blue; type: cell-based, human

compound | IC50 (µM)
N.N.[Cl][Pt][Cl] [Cisplatin] | 1.01

====

Quick reference: pIC50 of the listed items.
tested on: 16HBE SV40+ bronchial epithelium; type: cell-based, human
pIC50: −log10 of the molar value.
parameter: pIC50

compound | measuredResult
N.N.O=C([O-])C1(C(=O)[O-])CCC1.[Pt+2] | 4.45
N.N.[Cl][Pt][Cl] [Cisplatin] | 5.44

====

Measured pIC50 values are reported for all entries that follow.
test system: Ly18; assay: Cytotoxicity DLBCL; conditions: read-out: cytotoxicity IC50; LY18, DLBCL GCB
pIC50: −log10 of the molar value.

structure | targetOfAssay | pIC50
CN(C)CCNC(=O)c1cccc(NC(=O)Nc2ccc(N(CCCl)CCCl)cc2)c1 | Ly18 | 6.21
CC(C)C[C@H](NC(=O)[C@H](Cc1ccccc1)NC(=O)c1cnccn1)B(O)O | Ly18 | 8.00
CC(C)NCCCn1c(Sc2cc3c(cc2I)OCO3)nc2c(N)ncnc21 | Ly18 | 6.57
COc1cccc2c1C(=O)c1c(O)c3c(c(O)c1C2=O)C[C@@](O)(C(=O)CO)C[C@@H]3O[C@H]1C[C@H](N)[C@H](O)[C@H](C)O1 | Ly18 | 7.01

====

tested on: Z-138; test: Cytotoxicity mantle cell lymphoma; settings: read-out: mean IC50±SD; Z-138

structure | IC50
CN(C)CCNC(=O)c1cccc(NC(=O)Nc2ccc(N(CCCl)CCCl)cc2)c1 | 182 nM

====

tested on: SUDHL-6; experiment: Cytotoxicity DLBCL; details: read-out: cytotoxicity IC50; SUDHL-6, DLBCL GCB
parameter: IC50 (nM)

structure | targetOfAssay | parameter | measuredResult
CC(C)NCCCn1c(Sc2cc3c(cc2I)OCO3)nc2c(N)ncnc21 | SUDHL-6 | IC50 | 50

====

tested on: Ly8
pIC50: −log10 of the molar value.

compound | pIC50
CNC(=O)c1cc(Oc2ccc(NC(=O)Nc3ccc(Cl)c(C(F)(F)F)c3)cc2)ccn1 [SOR] | ≤ 5.10

====

test system: SUDHL-5; experiment: Cytotoxicity DLBCL; settings: read-out: cytotoxicity IC50; SUDHL-5, DLBCL GCB
pIC50: −log10 of the molar value.

compound | pIC50
CC(C)NCCCn1c(Sc2cc3c(cc2I)OCO3)nc2c(N)ncnc21 [PUH71] | 6.39
CN(C)CCNC(=O)c1cccc(NC(=O)Nc2ccc(N(CCCl)CCCl)cc2)c1 [BO-1055, Ureidomustine] | 5.38
COc1cccc2c1C(=O)c1c(O)c3c(c(O)c1C2=O)C[C@@](O)(C(=O)CO)C[C@@H]3O[C@H]1C[C@H](N)[C@H](O)[C@H](C)O1 [Doxorubicin] | 6.04
CC(C)C[C@H](NC(=O)[C@H](Cc1ccccc1)NC(=O)c1cnccn1)B(O)O [velcade, Bortezomib] | 7.74

====

system: Karpas-422; conditions: human
pIC50: −log10 of the molar value.

structure | pIC50
CN(C)CCNC(=O)c1cccc(NC(=O)Nc2ccc(N(CCCl)CCCl)cc2)c1 | 5.23

====

List of IC50 values.
tested on: HBL1; settings: human
parameter: IC50 (nM)

structure | parameter | measuredResult
CN(C)CCNC(=O)c1cccc(NC(=O)Nc2ccc(N(CCCl)CCCl)cc2)c1 | IC50 | 870
CC(C)C[C@H](NC(=O)[C@H](Cc1ccccc1)NC(=O)c1cnccn1)B(O)O | IC50 | 4
COc1cccc2c1C(=O)c1c(O)c3c(c(O)c1C2=O)C[C@@](O)(C(=O)CO)C[C@@H]3O[C@H]1C[C@H](N)[C@H](O)[C@H](C)O1 | IC50 | 211

====

tested on: H1395; assay type: cell-based, human
pIC50: −log10 of the molar value.
In this section, each of the compounds is paired with its reported pIC50.
parameter: pIC50

compound | relationSymbol | measuredResult
N.N.O=C([O-])C1(C(=O)[O-])CCC1.[Pt+2] | = | 4.76
N.N.[Cl][Pt][Cl] [Cisplatin] | ≤ | 4.82

====

system: SK-LU-1; type: cell-based, human
pIC50: −log10 of the molar value.
parameter: pIC50

compound | measuredResult
N.N.O=C([O-])C1(C(=O)[O-])CCC1.[Pt+2] | 4.37
N.N.[Cl][Pt][Cl] [Cisplatin] | 5.16

====

Catalogue of compounds with associated IC50
system: SUDHL-6; details: human
parameter: IC50 (nM)

structure | parameter | measuredResult
COc1cccc2c1C(=O)c1c(O)c3c(c(O)c1C2=O)C[C@@](O)(C(=O)CO)C[C@@H]3O[C@H]1C[C@H](N)[C@H](O)[C@H](C)O1 | IC50 | 195
CC(C)C[C@H](NC(=O)[C@H](Cc1ccccc1)NC(=O)c1cnccn1)B(O)O | IC50 | 1
CN(C)CCNC(=O)c1cccc(NC(=O)Nc2ccc(N(CCCl)CCCl)cc2)c1 | IC50 | 5930
